// provenance: the OligoGym collection

Biological target: Tau
Assay: rat primary cortical neurons, FLIPR, 25 uM ASO
Bases are written 5' to 3'; sugars and linkages follow in the same order, as letters with counts (s phosphorothioate, o phosphodiester; PS: all linkages phosphorothioate). The collection does not say whether C is 5-methylated. l = locked nucleic acid (LNA); d = 2'-deoxy (DNA)
READOUT_TYPE: calcium oscillation score

calcium oscillation score lookup needed for TACTAGCCCACCCATCAATT (sugars l3 d14 l3, PS) , thanks. 54.4 % of control

// query: TTTGATAAAACATCCC (sugars l4 d8 l4, PS) 89 % of control

// query: TCCACAAACCAACTCAACA (sugars l2 d13 l4, PS) 102 % of control

// query: GGGAGGCAGACACCTC (sugars l3 d10 l3, PS) 42.8 % of control

// query: CCTCCTAGAACACAACA (sugars l3 d12 l2, PS) 57 % of control

// query: GCTTTCCAATTCCCCA (sugars l2 d12 l2, PS) 101 % of control

// query: AAAGCAGGTTAAGTGATTAA (sugars l3 d14 l3, PS) 2.59 % of control

// query: AACTTTTACTCTGACTA (sugars l4 d9 l4, PS) 51.9 % of control

// query: ACCCTTAGACATAACA (sugars l4 d10 l2, PS) 75.1 % of control

// query: CAGAGGAACGTGTGGA (sugars l3 d10 l3, PS) 29.6 % of control

// query: CTTTATTTCCAAATTCAC (sugars l4 d10 l4, PS) 110 % of control

----------
Biological target: Tau
Test: rat primary cortical neurons, FLIPR, 25 uM ASO
Bases are written 5' to 3'; sugars and linkages follow in the same order, as letters with counts (s phosphorothioate, o phosphodiester; PS: all linkages phosphorothioate). The collection does not say whether C is 5-methylated. l = locked nucleic acid (LNA); d = 2'-deoxy (DNA)
READOUT_TYPE: calcium oscillation score

calcium oscillation score lookup needed for TTACACCCAAACCTAAA (sugars l4 d9 l4, PS) , thanks. 92.3 % of control

// query: TCTGGCATGGGCACG (sugars l3 d9 l3, PS) 119 % of control

// query: AACAAACATCTAAACACCTC (sugars l3 d13 l4, PS) 75.1 % of control

// query: AACCAATTAACCGAAC (sugars l3 d10 l3, PS) 138 % of control

// query: AGTCAAGCATCACGTT (sugars l3 d10 l3, PS) 42.2 % of control

// query: ACCTCCTAGAACACAAC (sugars l4 d10 l3, PS) 53.9 % of control

----------
Target: Tau
Test: rat primary cortical neurons, FLIPR, 25 uM ASO
Bases are written 5' to 3'; sugars and linkages follow in the same order, as letters with counts (s phosphorothioate, o phosphodiester; PS: all linkages phosphorothioate). The collection does not say whether C is 5-methylated. l = locked nucleic acid (LNA); d = 2'-deoxy (DNA)
READOUT_TYPE: calcium oscillation score

calcium oscillation score lookup needed for CCATTCAGATCTATCCA (sugars l3 d12 l2, PS) , thanks. 94.3 % of control

// query: GACGTTGCTAAGATCC (sugars l3 d10 l3, PS) 22.6 % of control

// query: TAATTCATTTAATTCTCTTC (sugars l4 d12 l4, PS) 60.1 % of control

// query: TATTTCAACTCTTAGCA (sugars l4 d10 l3, PS) 59 % of control

// query: CCAGCGTGATCTTCCATCAC (sugars lldllddddddddddlldll, PS) 121 % of control

// query: TAATCCTGTGCTTCAG (sugars l3 d10 l3, PS) 75.8 % of control

// query: ATGCTTACACACCACA (sugars l2 d10 l4, PS) 88.5 % of control

// query: ACTCAACATTACCCTTAAAT (sugars l4 d14 l2, PS) 71.5 % of control

// query: CGACTTATCTATCCATC (sugars l4 d10 l3, PS) 50.5 % of control

// query: TGTAGACTATTTGCACACTG (sugars l3 d14 l3, PS) 7.41 % of control

// query: CGTGGTCTGTCTTG (sugars l3 d8 l3, PS) 0 % of control

----------
For each entry below, report its calcium oscillation score value.
Target: Tau
Test: rat primary cortical neurons, FLIPR, 25 uM ASO
Bases are written 5' to 3'; sugars and linkages follow in the same order, as letters with counts (s phosphorothioate, o phosphodiester; PS: all linkages phosphorothioate). The collection does not say whether C is 5-methylated. l = locked nucleic acid (LNA); d = 2'-deoxy (DNA)

calcium oscillation score lookup needed for TGCTCTTAGCATCAGAGGTT (sugars l3 d14 l3, PS) , thanks. 25.9 % of control

// query: AGGGACGTGGGTGATATTGT (sugars l3 d14 l3, PS) 1.3 % of control

// query: CACCTCCTATATTCTCAG (sugars l2 d12 l4, PS) 75.4 % of control

// query: TAGCCCTAAAGTCCCAGGTC (sugars l3 d14 l3, PS) 54 % of control

// query: CTAATTTAGTCACCATC (sugars l3 d10 l4, PS) 83.3 % of control

// query: TCATCACCAAGTCCCAA (sugars l2 d12 l3, PS) 61.7 % of control

// query: ACTTGTACACGATCTCCGCC (sugars l3 d14 l3, PS) 103 % of control

// query: GTCTACCATGTCGATGCTGC (sugars l3 d14 l3, PS) 23.2 % of control

// query: ACTTTATTTCCAAATTCACTTTTAC (sugars llldddddddddddddddddldldl, PS) 17.7 % of control

// query: TTGTGATGCAGGAG (sugars l3 d8 l3, PS) 0 % of control

// query: AGGTCTGGCATGGGC (sugars l3 d9 l3, PS) 47.6 % of control

----------
Target: Tau
Assay: rat primary cortical neurons, FLIPR, 25 uM ASO
Bases are written 5' to 3'; sugars and linkages follow in the same order, as letters with counts (s phosphorothioate, o phosphodiester; PS: all linkages phosphorothioate). The collection does not say whether C is 5-methylated. l = locked nucleic acid (LNA); d = 2'-deoxy (DNA)
For each entry below, report its calcium oscillation score value.

Can you look up calcium oscillation score on Tau for GGCCACCTCCTGGTTT (sugars l3 d10 l3, PS) ? 39.3 % of control

// query: CAAAATCCTTAATTTAACCA (sugars l4 d12 l4, PS) 60.6 % of control

// query: TCCTCACTTTACACATTA (sugars l3 d13 l2, PS) 62.5 % of control

// query: GGGACGTGGGTGATAT (sugars l3 d10 l3, PS) 27.6 % of control

// query: CATGTCGATGCTGC (sugars l3 d8 l3, PS) 30.5 % of control

// query: ACCATGATCTTAGGCT (sugars l3 d10 l3, PS) 87.8 % of control

// query: GAACAGGAGAGCCATTTCCC (sugars l3 d14 l3, PS) 7.14 % of control

// query: CTCTTCCACTACAAGCTC (sugars l3 d13 l2, PS) 28.9 % of control

// query: CCAGATTCCCCAACTCA (sugars l2 d12 l3, PS) 76.7 % of control

----------
Target: Tau
Experiment: rat primary cortical neurons, FLIPR, 25 uM ASO
Bases are written 5' to 3'; sugars and linkages follow in the same order, as letters with counts (s phosphorothioate, o phosphodiester; PS: all linkages phosphorothioate). The collection does not say whether C is 5-methylated. l = locked nucleic acid (LNA); d = 2'-deoxy (DNA)
For each entry below, report its calcium oscillation score value.

calcium oscillation score lookup needed for CTTCAGTCCTAATCCT (sugars l3 d10 l3, PS) , thanks. 95.8 % of control

// query: GAGTGCTCTTAGCATC (sugars l3 d10 l3, PS) 33.3 % of control

// query: CATTTTTGTCTCATTAT (sugars l4 d9 l4, PS) 51 % of control

// query: TAGCCCTAAAGTCC (sugars l3 d8 l3, PS) 87.6 % of control

// query: TTATTTCCAAATTCACTTTT (sugars llldldddddddddllddll, PS) 110 % of control

// query: CGTTGCTAAGATCCAG (sugars l3 d10 l3, PS) 9.04 % of control

// query: TTAGCAGAGGAACGTG (sugars l3 d10 l3, PS) 25.9 % of control

// query: TACTAGCCCACCCATC (sugars l3 d10 l3, PS) ≥ 200 % of control

// query: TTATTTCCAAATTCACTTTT (sugars lldlddldddddddddllll, PS) 131 % of control

// query: TCACAACCCAAGATTCCC (sugars l2 d14 l2, PS) 69.5 % of control

// query: CCATGTCGATGCTGCC (sugars l3 d10 l3, PS) 55.1 % of control
